Origin of values: PubChem BioAssay (NCI)

Assign growth inhibition to each entry below.
assayDetails: NCI Yeast Anticancer Drug Screen. Data for the mlh1 rad18 strain (AID 175)
experimentalParameters: S. cerevisiae mlh1 rad18 strain growth inhibition; at 50.0 µM; hits give high values
Procedure: Growth inhibition of yeast strains with defined genetic alterations is measured as a screen for potential anti-cancer activity. Selected strains with alterations in DNA damage repair or cell cycle control were exposed to compounds and growth inhibition was measured relative to vehicle treated controls. The strain used in this assay is mlh1 rad18
The panel holds about 79,000 compounds, 15% with a hit somewhere; the sample as a whole holds those more often.
Numbers only, in %.

Worked examples, 8 compounds total:
- compound: "CN(C)c1ccc(C2c3c(oc4ccccc4c3=O)Oc3oc4ccccc4c(=O)c32)cc1"
  endpointValue: -17.5
- compound: "Cc1cc(C)c(C)c(C)c1C"
  endpointValue: 20.6
- compound: "O=S(=O)(Cc1cccs1)c1ncc(Br)cn1"
  endpointValue: 7.8
- compound: "COc1ccc2nc(C)c3c(c2c1)C(=O)N(CCCN1CCN(CCCN2C(=O)c4c(C)nc5ccc(OC)cc5c4C2=O)CC1)C3=O"
  endpointValue: 36.5
- compound: "CCCCCCCCCCCCCCCCCCCOc1ccc(OCCCCCCCC)cc1"
  endpointValue: 3
- compound: "NC(=S)NNC(=O)C(Cc1ccccc1)NC(=O)OCc1ccccc1 (centres undefined)"
  endpointValue: 11.4
- compound: "O=C(O)C1SCCS1"
  endpointValue: 12.8
- compound: "S=C(Nc1ccccc1)Nc1nc(-c2ccccc2)c(N=Nc2ccc(Cl)cc2)s1"
  endpointValue: 9.45

Please go through the list and note growth inhibition for each compound.
1. CCCCOC(=O)/C=C/c1ccc(OC(C)C)cc1
2. O=C(Nc1ccc(Cl)cc1)Nc1nnc(-c2ccc(F)cc2)o1
3. CN1C(=O)C2C(C1=O)[C@H]1c3ccccc3C=CN1[C@@H]2C(=O)c1ccccc1 (some centres undefined)
4. COc1ccc2c(O)cc(C(=O)O)c(-c3ccccc3)c2c1
5. CCOC(=O)CCC(NC(=O)c1ccc(Nc2nc3cc(C(F)(F)F)ccc3nc2-c2ccccc2)cc1)C(=O)OCC (centres undefined)
6. COc1cc(C(=O)n2ncc(C(C)=O)c2C)cc(OC)c1OC
7. Oc1ccc2c(c1)CCC2
8. O=C(COc1ccccc1)Nc1cccc2ccccc12

1. -10.4
2. 17.4
3. 10.1
4. -22.6
5. -37.1
6. 8.45
7. -19.6
8. 29.2

Please go through the list and note growth inhibition for each compound.
1. Clc1cccc(CC(Br)Br)c1
2. COc1ccc(N=C(N)N2CCCc3ccccc32)cc1

[14.5, 0.4]

Please go through the list and note growth inhibition for each compound.
1. COc1cc(OC)cc(C(NC(C)=O)NC(C)=O)c1
2. COc1ccc(-c2c(C#N)c(S)n(NS(=O)(=O)c3ccccc3)c(=O)c2C#N)cc1
3. CC(=O)c1cccc(NC(=O)/C(=N\NC(=S)NN)C2C(=O)Nc3ccccc3S2=O)c1 (centres undefined)
4. CC1C=CC(C)c2c(-c3ccccc3)oc(-c3ccccc3)c21 (centres undefined)
5. O=C(O)c1nnn(Cc2ccccc2)c1C(=O)O
6. CCCCOC(=O)C(C)C(=O)CCC(C)CC (centres undefined)

17.1
58
-10.5
9.7
20
3.85
